PROTOCOL_TEXT: small-molecule binders of probe aLefty1, primary screen, biochemical, small-molecule microarray, 635/667 nm fluorescence (AID 1153);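 further: score merges spot fluorescence with signal-to-noise ratio from the scanned slide images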
ASSAY_SETUP: higher = more signal

SMILES_STRUCTURE | composite z-score
CC(C)CON=C1C[C@@H](O)[C@@H](O)[C@@H]2[C@@H]3C(=O)N(C4CCCCC4)C(=O)[C@@H]3CC[C@@H]12 | -0.0662
Cc1cc2c(c(=O)o1)[C@@H](O)[C@H]1O[C@H]1C2=O | -0.0547
COc1ccc(COC(=O)NN=C2C[C@@H](O)[C@@H](O)[C@@H]3[C@@H]4C(=O)N(c5ccc(F)cc5F)C(=O)[C@@H]4CC[C@H]23)cc1 | 0.545
CCOC(=O)NN=C1C[C@@H](O)[C@@H](O)[C@@H]2[C@@H]3C(=O)N(c4cccc(Oc5ccccc5)c4)C(=O)[C@@H]3CC[C@H]12 | -0.0958
